target: P. vivax DHODH (Plasmodium vivax, UniProt A5K1N1); test: biochemical; format: biochemical
Sequence (A5K1N1 1-572): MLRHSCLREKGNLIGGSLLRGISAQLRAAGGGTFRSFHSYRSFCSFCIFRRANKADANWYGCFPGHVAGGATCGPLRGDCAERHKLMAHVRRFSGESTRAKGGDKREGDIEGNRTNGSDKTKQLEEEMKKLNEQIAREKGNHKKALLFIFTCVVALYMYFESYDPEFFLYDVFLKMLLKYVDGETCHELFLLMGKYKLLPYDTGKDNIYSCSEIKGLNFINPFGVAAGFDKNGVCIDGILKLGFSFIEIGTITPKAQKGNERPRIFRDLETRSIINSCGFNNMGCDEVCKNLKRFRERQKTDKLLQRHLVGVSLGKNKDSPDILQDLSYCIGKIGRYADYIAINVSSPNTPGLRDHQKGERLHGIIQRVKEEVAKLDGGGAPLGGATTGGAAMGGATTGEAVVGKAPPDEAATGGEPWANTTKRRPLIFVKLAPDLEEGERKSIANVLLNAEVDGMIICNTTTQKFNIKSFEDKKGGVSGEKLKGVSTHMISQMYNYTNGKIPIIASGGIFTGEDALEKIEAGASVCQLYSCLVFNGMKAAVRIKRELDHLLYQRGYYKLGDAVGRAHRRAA
attribute measured: IC50 (nM)

INSERT INTO results (molecule, tested_target, reading) VALUES
  ('Cc1c(Cc2ccc(C(F)(F)F)nc2)c[nH]c1C(=O)NC(C)c1cnn(C)c1 (single isomer, unassigned) [Compound 35]', 'P. vivax DHODH (Plasmodium vivax, UniProt A5K1N1)', 36);

* * *

target: Dog DHODH (Canis lupus familiaris); conditions: read-out: Dog DHODH IC50; 25° C., DCIP assay
Sequence (A0A8I3MWX2 1-406): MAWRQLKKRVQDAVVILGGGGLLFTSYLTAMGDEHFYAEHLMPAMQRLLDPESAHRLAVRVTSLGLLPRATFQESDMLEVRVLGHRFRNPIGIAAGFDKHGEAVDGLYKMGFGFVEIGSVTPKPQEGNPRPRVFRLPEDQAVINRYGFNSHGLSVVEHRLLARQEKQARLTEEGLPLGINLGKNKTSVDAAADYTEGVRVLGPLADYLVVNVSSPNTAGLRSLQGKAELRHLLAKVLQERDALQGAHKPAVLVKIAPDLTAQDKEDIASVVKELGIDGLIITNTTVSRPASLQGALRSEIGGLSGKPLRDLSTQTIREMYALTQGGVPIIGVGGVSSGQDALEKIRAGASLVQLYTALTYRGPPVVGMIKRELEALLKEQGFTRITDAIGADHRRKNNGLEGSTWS
attribute measured: IC50

INSERT INTO measurements (compound, attribute_measured, reading) VALUES
  ('Cc1c(C2(c3ccc(C(F)(F)F)nc3)CC2)c[nH]c1C(=O)NC(C)c1cc(C(N)=O)[nH]n1 (centres unmarked)', 'IC50', '> 100 µM'),
  ('Cc1c(Cc2ccc(C(F)(F)F)nc2)c[nH]c1C(=O)NC(C)c1cn[nH]c1 (centres unmarked)', 'IC50', '> 100 µM');

* * *

biological target: P. falciparum DHODH (Plasmodium falciparum (isolate 3D7), UniProt Q08210); details: 25° C., DCIP assay
Sequence (Q08210 24-569 limits assumed): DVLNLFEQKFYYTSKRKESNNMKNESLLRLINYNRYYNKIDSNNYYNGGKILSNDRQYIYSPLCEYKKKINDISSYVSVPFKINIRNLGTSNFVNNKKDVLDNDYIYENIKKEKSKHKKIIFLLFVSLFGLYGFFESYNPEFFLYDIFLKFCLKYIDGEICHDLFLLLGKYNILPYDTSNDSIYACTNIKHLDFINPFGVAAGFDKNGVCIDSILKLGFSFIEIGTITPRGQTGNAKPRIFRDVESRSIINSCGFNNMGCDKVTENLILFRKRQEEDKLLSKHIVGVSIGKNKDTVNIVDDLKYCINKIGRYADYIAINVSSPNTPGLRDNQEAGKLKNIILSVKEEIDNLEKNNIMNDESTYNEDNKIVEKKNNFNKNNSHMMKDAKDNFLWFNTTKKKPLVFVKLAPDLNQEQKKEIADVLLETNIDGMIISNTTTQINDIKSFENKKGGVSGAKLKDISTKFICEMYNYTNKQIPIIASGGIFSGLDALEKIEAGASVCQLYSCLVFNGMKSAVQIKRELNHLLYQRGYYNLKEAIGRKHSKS
pIC50: −log10 of the molar value.
Measured pIC50, listed per entry.
attribute measured: pIC50

INSERT INTO results (compound, reading) VALUES
  ('Cc1c(C2(c3ccc(C(F)(F)F)nc3)CC2)c[nH]c1C(=O)NC(C)c1cc(C(N)=O)[nH]n1 (centres unmarked)', 6.85),
  ('Cc1c(Cc2ccc(C(F)(F)F)nc2)c[nH]c1C(=O)NC(C)c1cn[nH]c1 (centres unmarked)', 7.33);

* * *

assay: in vitro; conditions: human
attribute measured: microsomal CLint (µL/min/mg)

INSERT INTO results (compound, attribute_measured, relation_sign, reading) VALUES
  ('Cc1cc(C(C)NC(=O)c2[nH]cc(C3(c4ccc(C(F)(F)F)nc4)CC3)c2C)n[nH]1 (single isomer, unassigned)', 'microsomal CLint', '=', 40),
  ('Cc1c(C2(c3ccc(C(F)(F)F)nc3)CC2)c[nH]c1C(=O)NC(C)c1cc(C#N)[nH]n1 (single isomer, unassigned)', 'microsomal CLint', '=', 16),
  ('Cc1c(C2(c3ccc(C(F)(F)F)nc3)CC2)c[nH]c1C(=O)NC(C)c1cn[nH]c1 (single isomer, unassigned)', 'microsomal CLint', '=', 66),
  ('Cc1cc(C(C)NC(=O)c2[nH]cc(Cc3ccc(C(F)(F)F)nc3)c2C)no1 (single isomer, unassigned)', 'microsomal CLint', '=', 29),
  ('Cc1cc(Nc2ccc(S(F)(F)(F)(F)F)cc2)n2nc(C(C)(F)F)nc2n1 [DSM265, reference compound]', 'microsomal CLint', '<', 7),
  ('Cc1c(C2(c3ccc(C(F)(F)F)nc3)CC2)c[nH]c1C(=O)NC(C)c1nc[nH]n1 (single isomer, unassigned)', 'microsomal CLint', '=', 11),
  ('Cc1c(C2(c3ccc(C(F)(F)F)nc3)CC2)c[nH]c1C(=O)NC(C)c1c[nH]cn1 (single isomer, unassigned)', 'microsomal CLint', '=', 35);

* * *

Measured pIC50, listed per entry.
target: P. vivax DHODH (Plasmodium vivax, UniProt A5K1N1); assay: biochemical; format: biochemical; details: 25° C., DCIP assay; read-out: P. vivax DHODH IC50
pIC50: −log10 of the molar value.
attribute measured: pIC50

INSERT INTO results (molecule, reading) VALUES
  ('Cc1c(C2(c3ccc(C(F)(F)F)nc3)CC2)c[nH]c1C(=O)NC(C)c1cc(C(N)=O)[nH]n1 (centres unmarked)', 6.77),
  ('Cc1c(Cc2ccc(C(F)(F)F)nc2)c[nH]c1C(=O)NC(C)c1cn[nH]c1 (centres unmarked)', 7.37);
